Biological target: hD2 recombinant receptor (human dopamine receptor type 2, long variant, CHO-Gα16-hD2L cells) (Homo sapiens (Human), UniProt P14416)
Conditions: functional pKi; antagonism of dopamine EC80 calcium response (FLIPR)
observation type: D2 fpKi

>>> recorded_measurement("Cc1ncoc1-c1nnc(SCCCN2CC[C@]3(CC[C@H]3c3ccccc3)C2)n1C (single isomer, unassigned)")
"<5"
>>> recorded_measurement("Cc1ncoc1-c1nnc(SCCCN2CCC[C@]3(C[C@H]3c3ccc(C(F)(F)F)cc3)C2)n1C (single isomer, unassigned)")
8.26
>>> recorded_measurement("Cn1c(OCCCN2CC[C@]3(C[C@H]3c3ccc(C(F)(F)F)cc3)C2)nnc1C1CCOCC1 (single isomer, unassigned)")
"<5"
>>> recorded_measurement("Cn1c(OCCCN2CC[C@@]3(C[C@@H]3c3ccc(C(F)(F)F)cc3)C2)nnc1C1CCOCC1 (single isomer, unassigned)")
"<5"

Now consider the entry below.
Tell me the measured D2 fpKi of Cc1ncoc1-c1nnc(SCCCN2CCC[C@@]3(C[C@H]3c3ccc(C(F)(F)F)cc3)C2)n1C (single isomer, unassigned) , please.
<5

---

Molecular target: hD2 recombinant receptor (human dopamine receptor type 2, long variant, CHO-Gα16-hD2L cells) (Homo sapiens (Human), UniProt P14416)
Test: cell-based
Settings: D2 fpKi, functional pKi; antagonism of dopamine EC80 calcium response (FLIPR)
pKi: −log10 of the molar value. Structures can show the parent of a compound that is named as a salt.
Tag: satisfied if measured pKi is not below 6, not satisfied if it is.

Check out these entries, answers already filled in.
>>> answer_label("Cn1c(SCCCN2CC[C@]3(C[C@@H]3c3ccc(C(F)(F)F)cc3)C2)nnc1-c1ccno1")
"not satisfied"
>>> answer_label("Cn1c(SCCCN2CC[C@]3(CC3c3ccc(C(F)(F)F)cc3F)C2)nnc1C1CCOCC1 (single isomer, unassigned) [Example 71]")
"not satisfied"
>>> answer_label("Cn1c(CCCCN2CC[C@@]3(C[C@@H]3c3ccc(C(F)(F)F)cc3)C2)nnc1C1CCOCC1 (single isomer, unassigned) [Example 300, hydrochloride]")
"not satisfied"
>>> answer_label("CC(=O)N1CCC(c2nnc(SCCCN3CC[C@]4(C[C@@H]4c4ccc(C(F)(F)F)cc4)C3)n2C)CC1 [Example 99]")
"not satisfied"
>>> answer_label("Cc1ncoc1-c1nnc(SCCCN2CCC[C@]3(C[C@@H]3c3ccc(C(F)(F)F)cc3)C2)n1C")
"not satisfied"

Is pKi for Cc1ncoc1-c1nnc(SCCCN2CCC[C@]3(C[C@H]3c3ccc(C(F)(F)F)cc3)C2)n1C (racemic) at or above 6?
satisfied

Is pKi for Cn1c(SCCCN2CC[C@]3(C[C@@H]3c3ccc(C(F)(F)F)cc3)C2)nnc1N1CCOCC1 (single isomer, unassigned) [Example 118, hydrochloride] at or above 6?
satisfied

Is pKi for "Cn1c(OCCCN2CC[C@]3(C[C@H]3c3ccc(C(F)(F)F)cc3)C2)nnc1C1CCOCC1" at or above 6?
not satisfied

---

Biological target: hD2 recombinant receptor (human dopamine receptor type 2, long variant, CHO-Gα16-hD2L membranes) (Homo sapiens (Human), UniProt P14416)
Conditions: displacement of 0.08 nM [3H]-Spiperone
Listed here: items and their measured D2 pKi.
Hey, just send me the number, nothing else.

>>> recorded_measurement("Cn1c(SCCCN2CC[C@]3(CC3c3ccc(F)cc3)C2)nnc1-c1ccc(=O)[nH]c1 (stereo partly drawn) [Example 131]")
6.16
>>> recorded_measurement("Cn1c(SCCCN2CC[C@]3(C[C@@H]3c3ccc(C(F)(F)F)cc3F)C2)nnc1-c1ccn2cnnc2c1 [Example 270]")
6.04
>>> recorded_measurement("Cc1ncccc1-c1nnc(SCCCN2CC[C@]3(CC3c3ccccc3C(F)(F)F)C2)n1C.Cl.Cl (stereo partly drawn) [Example 168]")
6.44
>>> recorded_measurement("Cl.Cn1c(SCCCN2CC[C@]3(C[C@@H]3c3ccc(C(F)(F)F)cc3F)C2)nnc1-c1ccn(C)c(=O)c1 [Example 139]")
5.83
>>> recorded_measurement("Cc1ccc(-c2nnc(SCCCN3CC[C@]4(CC4c4ccc(C(F)(F)F)cc4)C3)n2C)cn1 (stereo partly drawn) [Example 169]")
6.01
>>> recorded_measurement("Cl.Cn1c(SCCCN2CC[C@]3(C[C@@H]3c3ccc(C(F)(F)F)cc3)C2)nnc1-c1ccc2nncn2c1 [Example 268]")
5.80

Tell me the measured D2 pKi of Cn1c(SCCCN2CC[C@]3(C[C@@H]3c3ccc(C(F)(F)F)cc3)C2)nnc1-c1cnc(C(N)=O)cn1 [Example 228] , please.
6.33

Tell me the measured D2 pKi of CC(=O)N1CCC(c2nnc(SCCCN3CC[C@]4(C[C@@H]4c4ccc(C(F)(F)F)cc4F)C3)n2C)CC1 [Example 101] , please.
5.99

Tell me the measured D2 pKi of CNC(=O)c1cccc(-c2nnc(SCCCN3CC[C@]4(C[C@@H]4c4ccc(C(F)(F)F)cc4)C3)n2C)n1.Cl [Example 195] , please.
5.84

Tell me the measured D2 pKi of Cn1c(SCCCN2CC[C@]3(C[C@H]3c3ccc(C(F)(F)F)cc3F)C2)nnc1-c1ccncc1 [Example 164] , please.
6.23

Tell me the measured D2 pKi of Cn1c(SCCCN2CC[C@]3(CC3c3ccc(C(F)(F)F)cc3)C2)nnc1-c1cccnc1F (stereo partly drawn) [Example 173] , please.
5.75

Tell me the measured D2 pKi of Cn1c(SCCCN2CC[C@]3(CC3c3ccc(C(F)(F)F)cc3F)C2)nnc1-c1cnccn1 (stereo partly drawn) [Example 221] , please.
6.37

Tell me the measured D2 pKi of Cc1ncoc1-c1nnc(SCCCN2CC[C@]3(CC3c3ccc(C(F)(F)F)nc3)C2)n1C (stereo partly drawn) [Example 61] , please.
5.63

Tell me the measured D2 pKi of Cc1cnc(-c2nnc(SCCCN3CC[C@]4(CC4c4ccc(C(F)(F)F)cc4)C3)n2C)cn1 (stereo partly drawn) [Example 223] , please.
6.00

Tell me the measured D2 pKi of Cc1ccc(C(N)=O)nc1-c1nnc(SCCCN2CC[C@]3(C[C@@H]3c3ccc(C(F)(F)F)cc3)C2)n1C.Cl [Example 199] , please.
5.81

---

Target: hD2 recombinant receptor (human dopamine receptor type 2, long variant, CHO-Gα16-hD2L cells) (Homo sapiens (Human), UniProt P14416)
Assay: cell-based
Details: D2 fpKi, functional pKi; antagonism of dopamine EC80 calcium response (FLIPR)
Structures can show the parent of a compound that is named as a salt.
observation type: pKi
Kindly note that pKi refers to -log10 of the concentration in mol/L and answer with the value alone.

Tell me the measured pKi of Cn1c(SCCCN2CC[C@]3(C[C@@H]3c3ccc(C(F)(F)F)cc3F)C2)nnc1C1CCOCC1 (single isomer, unassigned) [Example 79, hydrochloride] , please.
6.44

Tell me the measured pKi of Cn1c(SCCCN2CC[C@]3(CC3c3ccc(C(F)(F)F)cc3F)C2)nnc1-c1ccncn1 (stereo partly shown) [Example 213] , please.
7.09

Tell me the measured pKi of CC(=O)N1CCC(c2nnc(SCCCN3CC[C@]4(C[C@@H]4c4ccc(C(F)(F)F)cc4)C3)n2C)CC1 (single isomer, unassigned) [Example 100] , please.
5.93

Tell me the measured pKi of Cn1c(SCCCN2CC[C@]3(CC3c3ccc(C(F)(F)F)cc3F)C2)nnc1-c1cnccn1 (stereo partly shown) [Example 221] , please.
7.06

---

Biological target: hD2 recombinant receptor (human dopamine receptor type 2, long variant, CHO-Gα16-hD2L membranes) (Homo sapiens (Human), UniProt P14416)
Assay: biochemical
Counter-ions that a name gives are not always drawn.
Labelling field: enter Y if recorded Ki is less than 500 nM. Enter N if it equals or exceeds that cut-off.

Check out these entries, answers already filled in.
>>> answer_label("Cn1c(SCCCN2CC[C@@]3(C[C@H]3c3ccc(C(F)(F)F)cc3F)C2)nnc1-c1ccc(C(N)=O)nc1 (single isomer, unassigned)")
"N"
>>> answer_label("Cn1c(SCCCN2CC[C@]3(C[C@@H]3c3ccc(C(F)(F)F)cc3)C2)nnc1-c1ccc(-c2nnn[nH]2)cc1 (single isomer, unassigned)")
"N"
>>> answer_label("Cn1c(SCCCN2CC[C@]3(C[C@@H]3c3ccc(C(F)(F)F)cc3)C2)nnc1-c1cnc(-c2cccnc2)o1 (single isomer, unassigned)")
"N"
>>> answer_label("Cn1c(SCCCN2CC[C@]3(C[C@@H]3c3ccc(C(F)(F)F)cc3F)C2)nnc1-c1ccc(C(N)=O)nc1 (single isomer, unassigned)")
"N"
>>> answer_label("Cc1ncoc1-c1nnc(CCCCN2CC[C@]3(C[C@@H]3c3ccc(C(F)(F)F)cc3)C2)n1C (single isomer, unassigned) [Example 302, hydrochloride]")
"N"

Hello, is Ki of the following molecule strictly smaller than 500 nM? Cn1c(SCCCN2CC[C@]3(C[C@@H]3c3ccc(C(F)(F)F)cc3)C2)nnc1-c1ccnc(C#N)c1 (single isomer, unassigned)
N

Hello, is Ki of the following molecule strictly smaller than 500 nM? Cn1c(SCCCN2CC[C@]3(C[C@@H]3c3ccc(C(F)(F)F)cc3)C2)nnc1-c1cncc(C(N)=O)c1 (single isomer, unassigned)
Y

Hello, is Ki of the following molecule strictly smaller than 500 nM? Cc1nccnc1-c1nnc(SCCCN2CC[C@]3(C[C@@H]3c3ccc(C(F)(F)F)cc3)C2)n1C (single isomer, unassigned) [Example 227, hydrochloride]
N

Hello, is Ki of the following molecule strictly smaller than 500 nM? Cn1c(SCCCN2CC[C@]3(C[C@@H]3c3ccc(C(F)(F)F)cc3)C2)nnc1-c1ccc(-n2cnnc2)cc1 (single isomer, unassigned)
Y

Hello, is Ki of the following molecule strictly smaller than 500 nM? Cn1c(SCCCN2CC[C@]3(C[C@@H]3c3ccc(C(F)(F)F)cc3F)C2)nnc1-c1ccc(C(N)=O)cn1 (single isomer, unassigned)
Y

Hello, is Ki of the following molecule strictly smaller than 500 nM? Cn1c(SCCCN2CC[C@]3(C[C@@H]3c3ccc(C(F)(F)F)cc3)C2)nnc1-c1ccc(CC#N)cc1 (single isomer, unassigned)
Y

Hello, is Ki of the following molecule strictly smaller than 500 nM? Cn1c(SCCCN2CC[C@]3(C[C@@H]3c3ccc(C(F)(F)F)cc3)C2)nnc1-c1ccc2[nH]cnc2n1 (single isomer, unassigned)
Y

Hello, is Ki of the following molecule strictly smaller than 500 nM? Cn1c(SCCCN2CC[C@]3(C[C@@H]3c3ccc(C(F)(F)F)cc3)C2)nnc1-c1ccc(Oc2ccccc2)nc1 (single isomer, unassigned)
N

Hello, is Ki of the following molecule strictly smaller than 500 nM? Cn1c(SCCCN2CC[C@]3(C[C@@H]3c3ccc(C(F)(F)F)cc3)C2)nnc1-c1cccc(C(N)=O)n1 (single isomer, unassigned)
Y

Hello, is Ki of the following molecule strictly smaller than 500 nM? Cn1c(SCCCN2CC[C@]3(C[C@@H]3c3ccc(C(F)(F)F)cc3)C2)nnc1-c1ccn2cnnc2c1 (single isomer, unassigned)
N

Hello, is Ki of the following molecule strictly smaller than 500 nM? Cc1nc(-c2ccc(-c3nnc(SCCCN4CC[C@]5(C[C@@H]5c5ccc(C(F)(F)F)cc5)C4)n3C)cc2)no1 (single isomer, unassigned)
Y

Hello, is Ki of the following molecule strictly smaller than 500 nM? Cc1cccnc1-c1nnc(SCCCN2CC[C@]3(C[C@@H]3c3ccc(C(F)(F)F)cc3)C2)n1C (single isomer, unassigned) [Example 170, dihydrochloride]
N

Hello, is Ki of the following molecule strictly smaller than 500 nM? Cn1c(SCCCN2CC[C@]3(C[C@@H]3c3ccc(C(F)(F)F)cc3)C2)nnc1N1CCOCC1 (single isomer, unassigned) [Example 118, hydrochloride]
Y

Hello, is Ki of the following molecule strictly smaller than 500 nM? Cn1c(SCCCN2CC[C@]3(C[C@@H]3c3ccc(C(F)(F)F)cc3)C2)nnc1-c1ccc(C(N)=O)cn1 (single isomer, unassigned) [Example 189, dihydrochloride]
Y
